assayDetails: Concentration inhibiting [3H]TdR incorporation in Yoshida sarcoma tumor cells in vitro in rats
Assay type: functional, cell-based, Rattus norvegicus
endpointLabel: IC50 (µM)
Kindly provide the numeric value in µM only, without the unit symbol.

Asked: For the compound CCOP(=O)(OCC)O[C@]1(C)C(=O)c2cc3c(c(O)c2[C@@H](OC2OC(C)C(O)C(O)C2OC)[C@@H]1OC)C(=O)c1c(O)cccc1C3=O (stereo partly drawn) , what IC50 is on record?
Given back: 0.63

Asked: For the compound COC1C(O[C@@H]2c3c(cc4c(c3O)C(=O)c3c(O)cccc3C4=O)C(=O)[C@@](C)(O)[C@H]2OC)OC(C)C(OC(C)=O)C1OC(C)=O (stereo partly drawn) , what IC50 is on record?
Given back: 1.3

Asked: For the compound COC1C(O[C@@H]2c3c(cc4c(c3O)C(=O)c3c(O)cccc3C4=O)C(/N=N/S(=O)(=O)c3ccc(C)cc3)[C@@](C)(O)[C@H]2OC)OC(C)C(O)C1O (stereo partly drawn) , what IC50 is on record?
Given back: 3.9

Asked: For the compound COC1C(O[C@@H]2c3c(cc4c(c3O)C(=O)c3c(ccc(N(C)C)c3O)C4=O)C(=O)[C@@](C)(O)[C@H]2OC)OC(C)C(O)C1O (stereo partly drawn) , what IC50 is on record?
Given back: 0.63

Asked: For the compound COC1C(O[C@@H]2c3c(cc4c(c3O)C(=O)c3c(O)c(N(C)C)cc(N(C)C)c3C4=O)C(=O)[C@@](C)(O)[C@H]2OC)OC(C)C(O)C1O (stereo partly drawn) , what IC50 is on record?
Given back: 5

----------
assayDetails: Concentration inhibiting [3H]TdR incorporation in Yoshida sarcoma tumor cells in vitro in rats
Format: functional, cell-based, Rattus norvegicus
pIC50: −log10 of the molar value.
endpointLabel: pIC50

Asked: For the compound CC[C@@]1(O)C[C@H](O[C@H]2C[C@H](N(C)C)[C@H](O[C@H]3C[C@H](O)[C@H](O[C@H]4CCC(=O)[C@H](C)O4)[C@H](C)O3)[C@H](C)O2)c2c(cc3c(c2O)C(=O)c2c(O)cccc2C3=O)[C@H]1C(=O)OC , what pIC50 is on record?
Given back: > 7.70

Asked: For the compound COc1cccc2c1C(=O)c1c(O)c3c(c(O)c1C2=O)C[C@@](O)(C(=O)CO)C[C@@H]3O[C@H]1C[C@H](N)[C@H](O)[C@H](C)O1 , what pIC50 is on record?
Given back: > 7.70

Asked: For the compound COc1cccc2c1C(=O)c1c(O)c3c(c(O)c1C2=O)C[C@@](O)(C(C)=O)C[C@@H]3O[C@H]1C[C@H](N)[C@H](O)[C@H](C)O1 , what pIC50 is on record?
Given back: > 7.70
